# measurement_target: Sigma intracellular receptor 2 (Rattus norvegicus) (UniProt Q5U3Y7)
# Sequence (whole entry): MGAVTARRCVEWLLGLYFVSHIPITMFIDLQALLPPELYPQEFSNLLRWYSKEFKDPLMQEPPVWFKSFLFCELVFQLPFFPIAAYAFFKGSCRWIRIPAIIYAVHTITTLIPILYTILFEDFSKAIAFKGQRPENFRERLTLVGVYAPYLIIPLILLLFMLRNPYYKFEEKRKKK
# assay_overview: Displacement of [3H]DTG from sigma-2 receptor in rat liver membranes at 1 uM after 120 mins by microbeta scintillation counting method relative to control
# Assay type: cell membranes
# condition_details: Membrane
Provide the reported inhibition of each item.
Express the result in % but write the number alone.

For OCC[C@H]1Cc2ccccc2C2(CCN(Cc3ccccc3)CC2)O1 , what is its reported inhibition? 21

Here is the next compound: COC(=O)C[C@@H]1Cc2ccccc2[C@H](CCN2CCCCC2)O1 39

Same for COC(=O)C[C@H]1Cc2ccccc2[C@@H](CCN2CCCCC2)O1 13

Next entry: OCC[C@@H]1Cc2ccccc2C2(CCN(Cc3ccccc3)CC2)O1 9

FYI, the data here is from ChEMBL document CHEMBL4033681.
